- System: NCI-H226 lung
- procedureSummary: NCI-60 one-dose screen, 48 h (100 = growth as untreated, 0 = no growth, -100 = all killed)
- assayContext: 10 µM unless noted
- Description: Growth inhibition of the NCI-H226 human Non-Small Cell Lung tumor cell line is measured as a screen for anti-cancer activity. Cells are grown in 96 well plates and exposed to the test compound for 48 hours. Compounds are tested at a single concentration, which is 10^-5 M for most compounds. The reported endpoint is percent growth (GI% or GIPRCNT), where numbers from 0 - 100% represent growth inhibition, and numbers from -100% - 0 represent cell death. […]
About 83,000 compounds went through this panel and 20% of them were active in at least one assay; those are over-represented in the sample as a whole. Activity calls are given as the source filed them. How the source made its calls: active means growth percent below 10; inactive means the rest.
Please go through the items and note down their growth.

Go through the list and state growth for each entry.
1. OCc1cn(-c2ccc(Cl)cc2)nc1-c1ccc(O)cc1
2. CCCCCCCCCCCCCCCCNc1ccccc1
3. COc1ccc(C(=O)NC(=O)Nc2ccc3c(c2)NC(=O)/C3=C\c2[nH]c(C)c(C(=O)O)c2C)c(F)c1
4. Cc1ccc(=O)n(-c2ccc(Br)cc2F)c1

96.9% (inactive)
99.8% (inactive)
67.1% (inactive)
85.4% (inactive)

For every item below, please supply its growth.
1. Nc1nccc(=S)[nH]1
2. CCCCCCCCCCCCCCCCCCNCc1ccc(Cl)cc1
3. O=C(Cn1c2ccccc2c2ccncc21)N/N=C\c1ccc2ccccc2c1
4. Nc1nc(Cl)cc(NCCCCNc2cc(Cl)nc(N)n2)n1

1. 103% (inactive)
2. 4.03% (active)
3. 31.9% (inactive)
4. 109% (inactive)

// batch mode: one growth value per listed entry
1. COc1ccc(/C(Cl)=N/N=C(\Cl)c2cc(OC)c(OC)c(OC)c2)cc1OC(C)=O
2. COc1cc(NC(C)CCCN2C(=O)c3ccccc3C2=O)c2nc(C)ccc2c1OC (centres undefined)
3. C=C1C(=O)O[C@H]2[C@H]1CC/C(COC(=O)c1ccc(Cl)nc1)=C\CC[C@@]1(C)O[C@@H]21
4. CCc1ccc(C2=C/C(=C/c3ccc(Cl)cc3)C(=O)N2CCc2ccc(S(N)(=O)=O)cc2)cc1
5. O=C(O)c1cccc2oc(-c3ccccc3O)nc12
6. Cc1cccc(Cc2cnc(NC(=O)CCc3ccc(C)o3)s2)c1

1: 95.3% (inactive); 2: 96.4% (inactive); 3: -9.06% (active); 4: 29.2% (inactive); 5: 63% (inactive); 6: 35.1% (inactive)

----------
Field: growth. Provide a value for each of the compounds that follow.
- Tested on: 786-0 renal
- procedureSummary: NCI-60 one-dose screen, 48 h (100 = growth as untreated, 0 = no growth, -100 = all killed)
- assayContext: 10 µM unless noted
The panel holds about 83,000 compounds, 20% with a hit somewhere; the sample as a whole holds those more often. Activity calls are given as the source filed them. Rule for the calls: active = growth percent below 10; inactive = the rest.

Example cases with answers are listed next.
                                   compound  measuredtarget        assayvalue
0  COC(=O)c1oc2c(C(C)=O)c(OCCCN(C)C)ccc2c1C     786-0 renal    96% (inactive)
1  C=C1C(=O)O[C@H]2[C@H]1CC/C(COC(=O)CCCC(=O)OC/C1=C/CC[C@@]3(C)O[C@H]3[C@H]3OC(=O)C(=C)[C@@H]3CC1)=C\CC[C@@]1(C)O[C@@H]21     786-0 renal   -34.1% (active)
2  [2H]c1nc(Nc2ncc(F)c(-c3cc(F)c4nc(C)n(C(C)C)c4c3)n2)c([2H])c([2H])c1CN1CCN(CC)CC1     786-0 renal  52.8% (inactive)

Your task in this section: give growth for each listed record.
1. OC(COc1ccccc1Cl)CN1CCN(c2ccc(Cl)cc2)CC1 (stereo unspecified)
2. CC(C)(C)C(=O)/C=c1/[nH]c(=O)/c(=C/c2ccccc2O)s1

106% (inactive)
87.3% (inactive)

Which value of growth has been reported for C/C(=N/NC(=O)Cn1c2ccccc2c2ccncc21)c1cccs1 in the records?
100% (inactive)

----------
- Test system: IGROV1 ovarian
- procedureSummary: NCI-60 one-dose screen, 48 h (100 = growth as untreated, 0 = no growth, -100 = all killed)
- assayContext: 10 µM unless noted
Compounds without any hit were thinned out: in the full panel of roughly 83,000, 20% have a hit.
recordedMetric: growth (%)
Numbers only, in %.

Could I get growth for every one of these entries?
1. CC(Cc1cccc(C(F)(F)F)c1)NCCOC(=O)c1ccccc1 (centres undefined)
2. Clc1ccc2c(NCCNc3nc(Cl)nc4ccccc34)ccnc2c1
3. CC(/C=C/C=C(\C)[C@H](O)[C@H](C)C(=O)O[C@H]1C[C@H](C)C=C2C=C[C@@]3(C)O[C@@H](O)CC(=O)[C@]3(C)[C@H]21)=C\C=C\C(=O)O
4. O=C(C[n+]1ccccc1Cl)c1ccc2c(c1)CCCC2
5. c1ccc([Se]CCCN2CCN(CCC[Se]c3ccccc3)CC2)cc1

1. 105
2. -85
3. 5.48
4. 107
5. 103

Below are some compounds; for each one, tell me its growth.
1. COc1ccc(/C=C/C(=O)c2ccc(Oc3ncnc4ccccc34)cc2)cc1OC
2. CCCCOc1c(N)cc(Cl)cc1C(=O)OCCN(CC)CC
3. CCn1cc(/C=C2\Oc3cc(OCC#N)ccc3C2=O)c2cc(OC)ccc21
4. C[C@H]1C=C(C[C@@H](O)CC#CC#CCCCCC[C@@H](O)[C@H]2CCC(=O)O2)C(=O)O1
5. Cc1cc(C)c(O)c(C(=O)CC(Br)C(=O)O)c1 (centres undefined)

[33.5, 107, 43.3, 54.1, 106]

# map each compound to its growth
1. Nc1ncnc2c1c(-c1ccc(Oc3ccccc3)cc1)nn2C[C@@H]1SSC[C@H]1O
2. CCN1CCN(Cc2ccc(NC(=O)Nc3cccc(-n4ccc5c(NC(=O)c6ccccc6)nccc54)c3)cc2C(F)(F)F)CC1
3. Cc1cn([C@]2(CF)O[C@H](CO)C2C)c(=O)[nH]c1=O (some centres undefined)
4. O=C(Nc1ccc(-n2cc(-c3ccncc3)c(-c3ccc(O)c(Cl)c3)n2)cc1)c1ccc(Cl)c(C(F)(F)F)c1

-10.3
74.8
-29.1
52.9

Required: growth, one value per compound below.
1. O=C1COc2ccccc2C(=O)N1CCCCNc1ccccc1
2. CC1=C2C(=C[C@@](C)(CO)[C@@H]2OC(=O)N(C)CCN(C)C(=O)OC(C)(C)C)C(=O)[C@](C)(O)C12CC2
3. Nc1nc(Cl)cc(NCCCCNc2cc(Cl)nc(N)n2)n1

1. 99.9
2. 9.25
3. -19.9

Please report growth for every entry that follows.
1. O=S(=O)(Nc1cccc2cc(OS(=O)(=O)c3ccccc3)ccc12)c1ccccc1
2. Nc1nccc2c1ccn2-c1ccc(NC(=O)c2ccc(N3CCOCC3)c(C(F)(F)F)c2)cc1
3. CCOC(=O)c1[nH]c(-c2ccc(Cl)cc2)cc1-c1cccnc1
4. CCNC(=O)Oc1ccc(/C(=C(/CC)Cc2ccccc2)c2ccc(OCCN3CCOCC3)cc2)cc1
5. COc1ccc(/C=C/C(=O)/C=C(/C=C/c2ccc(OC)c(OC)c2OC)OB(F)F)c(OC)c1OC
6. CN(C)c1ccc(/C=N/N=C(N)N)cc1
7. COc1ccccc1S(=O)(=O)Nc1ccc2c3c(cc(-c4cnn(C5CC5)c4)nc13)C(=O)N2C

1: 72.5; 2: 35.8; 3: 43.9; 4: 59.4; 5: 26.3; 6: 69.8; 7: 59.2

----------
- Tested on: HT29 colon
- procedureSummary: NCI-60 one-dose screen, 48 h (100 = growth as untreated, 0 = no growth, -100 = all killed)
- assayContext: 10 µM unless noted
The panel holds about 83,000 compounds, 20% with a hit somewhere; the sample as a whole holds those more often.
Hi there, I'd appreciate the recorded growth for every entry that follows.
Answers are plain numbers, in %.

Some solved cases for reference:
In [3]: df
Out[3]:
                                   compound  measuredtarget  displayunit  assayvalue
0  C#C[C@@]1(O)[C@@H](CO)O[C@@H](n2cc(Br)c3c(Cl)ccnc32)[C@@H]1O      HT29 colon            %        12.2
1  COc1ccc(-c2nn(-c3ccc(NC(=O)c4ccc(Cl)c(C(F)(F)F)c4)cc3)cc2-c2ccncc2)cc1Cl      HT29 colon            %       -39.5

# batch: return growth for each of the 3 compounds below
1. C=CCn1c(SCC(=O)Nc2ccc(C(=O)/C=C/c3cc(OC)c(OC)c(OC)c3)cc2)nnc1-c1ccc(OC)cc1
2. CCOc1cccc(Nc2nc(N)nc3[nH]c4ccc(O)cc4c23)c1
3. CCC1CN2C(=N1)c1ccccc1-c1cc(Cl)ccc12 (stereo not given)

[-27.9, 93.3, 5.27]
